TARGET DESC: Fes (UniProt P07332)
Sequence (P07332 whole entry, looked up): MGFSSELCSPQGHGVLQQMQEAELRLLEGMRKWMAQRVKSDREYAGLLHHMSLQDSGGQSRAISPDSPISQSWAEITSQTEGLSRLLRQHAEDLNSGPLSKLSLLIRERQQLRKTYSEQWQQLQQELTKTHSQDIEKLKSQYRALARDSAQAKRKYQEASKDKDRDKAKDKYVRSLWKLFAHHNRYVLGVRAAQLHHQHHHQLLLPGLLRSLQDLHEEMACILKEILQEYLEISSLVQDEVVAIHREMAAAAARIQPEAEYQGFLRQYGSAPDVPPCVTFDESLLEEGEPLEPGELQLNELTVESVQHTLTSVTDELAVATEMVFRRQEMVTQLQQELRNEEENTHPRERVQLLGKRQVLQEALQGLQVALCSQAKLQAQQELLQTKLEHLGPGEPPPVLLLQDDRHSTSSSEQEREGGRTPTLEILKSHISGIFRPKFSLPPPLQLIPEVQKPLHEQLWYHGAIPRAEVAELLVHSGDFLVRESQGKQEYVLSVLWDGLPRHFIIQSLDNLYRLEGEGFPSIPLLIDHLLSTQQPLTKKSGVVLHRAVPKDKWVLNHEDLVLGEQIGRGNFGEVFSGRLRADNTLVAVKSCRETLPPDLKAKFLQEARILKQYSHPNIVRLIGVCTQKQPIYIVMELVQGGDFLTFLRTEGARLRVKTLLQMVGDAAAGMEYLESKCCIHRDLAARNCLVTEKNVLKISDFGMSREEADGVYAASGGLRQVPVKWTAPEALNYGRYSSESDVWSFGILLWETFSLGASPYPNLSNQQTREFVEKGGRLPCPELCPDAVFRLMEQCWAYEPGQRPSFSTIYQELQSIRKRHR
PROTOCOL DESCRIPTION: phosphorylation enrichment, bacterial display (enrichment ratio); higher = better substrate or ligand; peptides without Tyr show the background;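 note: 11-residue human phosphosite peptides and single-mutation variants displayed on the E. coli surface, counted by deep sequencing, each peptide's frequency after selection divided by its frequency in the unselected input library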;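 note: frequency after pTyr selection over input frequency; kinase dosed for 20-30% of maximal phosphorylation in three min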
PROPERTY: phosphorylation enrichment
Numbers only.

FEEDSYSHVMA [FDPS_Y388_I391V_YF] : 1.3
DKMEAYNIDET [TEKT4_Y210] : 1.29

# batch size: 2; output phosphorylation enrichment per entry
1. PDDPSYSLVDD [PSTPIP2_Y323_N322S]
2. INASGYRIGPA [ACSM1_Y477]

1: 1.53; 2: 0.502

# batch size: 4; output phosphorylation enrichment per entry
1. RAEIVYKSPVV [MAPT_Y711_G706R]
2. LLIMEYAKFGS [RET_Y806_V804M_YF]
3. LDAGEYCVPRG [BEX1_Y43]
4. PLFKICVAELI [MRPL28_Y230_Y230C]

1. 1.46
2. 1.77
3. 2.01
4. 1.57

# batch size: 3; output phosphorylation enrichment per entry
1. NTYEKYLGEEY [TF_Y669]
2. QRRFLYFFSFL [PTEN_Y176_V175L_YF]
3. VHHLVYHHHHH [CACNA1H_Y519]

1.06
1.85
1.99

----------
TARGET DESC: EPHB2 (UniProt P29323)
Sequence (P29323 whole entry, looked up): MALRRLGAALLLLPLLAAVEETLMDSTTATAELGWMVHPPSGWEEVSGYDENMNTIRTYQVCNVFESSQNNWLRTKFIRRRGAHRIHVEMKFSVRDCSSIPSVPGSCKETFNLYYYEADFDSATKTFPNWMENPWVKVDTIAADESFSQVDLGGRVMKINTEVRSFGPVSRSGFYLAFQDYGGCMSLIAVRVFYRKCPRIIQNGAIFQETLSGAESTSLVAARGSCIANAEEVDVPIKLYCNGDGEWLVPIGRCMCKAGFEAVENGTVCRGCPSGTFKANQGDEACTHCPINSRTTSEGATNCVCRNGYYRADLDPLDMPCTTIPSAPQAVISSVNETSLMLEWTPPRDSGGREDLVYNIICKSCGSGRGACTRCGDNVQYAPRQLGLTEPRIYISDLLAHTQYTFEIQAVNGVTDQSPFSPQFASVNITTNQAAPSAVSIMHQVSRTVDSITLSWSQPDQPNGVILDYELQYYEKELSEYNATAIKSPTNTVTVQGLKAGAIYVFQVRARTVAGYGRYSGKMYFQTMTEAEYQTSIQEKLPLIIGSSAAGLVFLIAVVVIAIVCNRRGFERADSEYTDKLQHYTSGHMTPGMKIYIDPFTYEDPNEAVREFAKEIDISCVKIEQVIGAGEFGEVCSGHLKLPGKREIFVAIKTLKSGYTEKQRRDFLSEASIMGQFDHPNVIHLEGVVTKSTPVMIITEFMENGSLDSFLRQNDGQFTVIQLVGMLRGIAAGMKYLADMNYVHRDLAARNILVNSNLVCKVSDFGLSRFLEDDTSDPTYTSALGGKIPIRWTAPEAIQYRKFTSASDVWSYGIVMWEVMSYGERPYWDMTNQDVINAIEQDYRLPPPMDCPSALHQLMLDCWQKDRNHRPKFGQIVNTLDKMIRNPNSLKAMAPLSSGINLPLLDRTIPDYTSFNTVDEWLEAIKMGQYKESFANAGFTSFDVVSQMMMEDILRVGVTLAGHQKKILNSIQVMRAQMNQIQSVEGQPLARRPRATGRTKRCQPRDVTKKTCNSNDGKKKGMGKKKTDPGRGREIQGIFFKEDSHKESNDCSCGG
PROTOCOL DESCRIPTION: phosphorylation enrichment, bacterial display (enrichment ratio); higher = better substrate or ligand; peptides without Tyr show the background
PROPERTY: phosphorylation enrichment
Answers are plain numbers.

Please review the following examples before continuing.
ITGNGYFFRVF [MYBPC3_Y1135_I1131T_YF] : 0.493
VHHLVYHHHHH [CACNA1H_Y519] : 0.696

# batch size: 3; output phosphorylation enrichment per entry
1. CTTILYNYMCN [TP53_Y234_H233L]
2. HDRNTYEKYLG [TF_Y666]
3. ILGLEYSLRLP [HELZ2_Y1304_V1308L]

[0.766, 0.759, 0.56]

----------
Test system: c-Abl (mouse)
PROTOCOL DESCRIPTION: phosphorylation enrichment, bacterial display (enrichment ratio); higher = better substrate or ligand; peptides without Tyr show the background
Exercise: for every item that follows, state its recorded phosphorylation enrichment.
Give bare numbers.

# batch size: 2; output phosphorylation enrichment per entry
1. PPGRSYSPCDY [TNS1_Y793_Y796C]
2. MAPQMYEFHLP [NCAPD2_Y6]

1: 0.832; 2: 0.473

# batch size: 5; output phosphorylation enrichment per entry
1. CTTIHYNCMCN [TP53_Y234_Y236C]
2. LIYTNYEAGKD [GSTP1_Y112]
3. SVTFTYSPALN [TP53_Y126_C124Y_YF]
4. RFGRKYKKVRF [F8_Y442_I438F]
5. KTTILHKLKLG [ARF1_Y35_Y35H]

1: 0.689; 2: 7.84; 3: 0.675; 4: 0.806; 5: 0.591

Consider the sequence shown here: SPQAHYRLSAF [ADAMTS9_Y100_S96P] What is its recorded phosphorylation enrichment? 0.597

----------
System: c-Src
PROTOCOL DESCRIPTION: phosphorylation enrichment, bacterial display (enrichment ratio); higher = better substrate or ligand; peptides without Tyr show the background
Exercise: for every item that follows, state its recorded phosphorylation enrichment.
One number for each entry.

Please review the following examples before continuing.
NTQRPHFKGGG [TYROBP_Y111_Y111H_YF] : 0.448
AEQDCYHGAIP [FER_Y461_W460C] : 0.599
YEKFLYFLPAS [DYNC2H1_Y346_H341Y] : 0.938
REGKIYEYNQV [ZNF665_Y162_H157R] : 1.19

# batch size: 5; output phosphorylation enrichment per entry
1. EYFDGYWEYSV [ITGA2B_Y265_G267E]
2. KFMVGYEMLAQ [GALT_Y339]
3. RRNVYYYSYLL [PTEN_Y177_Y174N]
4. CEDMEYLESKQ [BTK_Y511_A508D]
5. IFGEEYEEQPR [ZMYM2_Y1033_V1028I]

1. 6.02
2. 0.382
3. 1.79
4. 0.53
5. 0.591
